These data points were gathered from patent US20240376108A1.

measurement_notes: Hygroscopicity experiment (DVS)
Type: physicochemical
run_conditions: Cycle 1, target relative humidity 10.0%, 25° C.
Each record here notes measured % percentage of mass change, Sorption.
Please respond with the number in % and leave the unit unwritten.

Field: example entries. Status: answers known.
INSERT INTO results (compound, assay_result) VALUES
  ('Cl.N#Cc1cc2n(CC(=O)Nc3ccc(F)cn3)c(=O)c3ccc(C(F)(F)F)nc3n2n1 [Hydrochloride (crystal form A)]', 0.131),
  ('CS(=O)(=O)O.N#Cc1cc2n(CC(=O)Nc3ccc(F)cn3)c(=O)c3ccc(C(F)(F)F)nc3n2n1 [Methanesulfonate (crystal form A)]', 0.051),
  ('CCS(=O)(=O)O.N#Cc1cc2n(CC(=O)Nc3ccc(F)cn3)c(=O)c3ccc(C(F)(F)F)nc3n2n1 [Ethanesulfonate (crystal form A)]', 0.051);

Now let's try a different one.
Any idea what its % percentage of mass change, Sorption is? The compound is N#Cc1cc2n(CC(=O)Nc3ccc(F)cn3)c(=O)c3ccc(C(F)(F)F)nc3n2n1.O=S(=O)(O)O [Sulfate (crystal form B)]
0.099
